test system: Enterococcus faecium; experiment: In vitro minimum inhibitory concentration against vancomycin-resistant Enterococcus faecium (GC 4558); type: functional
property.name: MIC

Please look up its MIC: CCN1CCN(C(=O)N[C@@H](C(=O)N[C@@H]2C(=O)N3[C@@H]2SC(C)(C)[C@@H]3C(=O)O)c2ccccc2)C(=O)C1=O [PIPERACILLIN]
> 64 mg/L

Find the recorded MIC belonging to C[C@@H](c1ccccc1)[C@@H]1NC(=O)CNC(=O)[C@H](CO)NC(=O)[C@@H]([C@@H](O)[C@@H]2CN=C(N)N2[C@H]2O[C@H](CO)[C@@H](O)[C@H](O)[C@@H]2O)NC(=O)[C@H]([C@H](O)[C@@H]2CN=C(N)N2)NC(=O)[C@@H](Cc2ccc3nc(-c4cccc(F)c4)oc3c2)NC1=O and report it.
16 mg/L

Entry Cc1ccc(Oc2ccc(-c3nc4ccc(C[C@H]5NC(=O)[C@H]([C@@H](C)c6ccccc6)NC(=O)CNC(=O)[C@H](CO)NC(=O)[C@@H]([C@@H](O)[C@@H]6CN=C(N)N6[C@H]6O[C@H](CO)[C@@H](O)[C@H](O)[C@@H]6O)NC(=O)[C@H]([C@H](O)[C@@H]6CN=C(N)N6)NC5=O)cc4o3)cc2)cc1 : reported MIC = ?
4 mg/L

Any idea what MIC was measured for C[C@@H](c1ccccc1)[C@@H]1NC(=O)CNC(=O)[C@H](CO)NC(=O)[C@@H]([C@@H](O)[C@@H]2CN=C(N)N2[C@H]2O[C@H](CO)[C@@H](O)[C@H](O)[C@@H]2O)NC(=O)[C@H]([C@H](O)[C@@H]2CN=C(N)N2)NC(=O)[C@@H](Cc2ccc3nc(SCC(=O)c4ccc(Cl)cc4)oc3c2)NC1=O ?
4 mg/L

* * *

For each of the compounds below, state its MIC.
system: Enterococcus faecalis; test: In vitro minimum inhibitory concentration against vancomycin-resistant Enterococcus faecalis (GC 3059); type: functional
Write down the value, and be sure its unit follows.

Name the reported MIC value associated with the compound C[C@@H](c1ccccc1)[C@@H]1NC(=O)CNC(=O)[C@H](CO)NC(=O)[C@@H]([C@@H](O)[C@@H]2CN=C(N)N2[C@H]2O[C@H](CO)[C@@H](O)[C@H](O)[C@@H]2O)NC(=O)[C@H]([C@H](O)[C@@H]2CN=C(N)N2)NC(=O)[C@@H](Cc2ccc3nc(SCC(=O)c4ccc(Cl)cc4)oc3c2)NC1=O
32 µg/mL

Give its MIC value. Item: C[C@@H](c1ccccc1)[C@@H]1NC(=O)CNC(=O)[C@H](CO)NC(=O)[C@@H]([C@@H](O)[C@@H]2CN=C(N)N2[C@H]2O[C@H](CO)[C@@H](O)[C@H](O)[C@@H]2O)NC(=O)[C@H]([C@H](O)[C@@H]2CN=C(N)N2)NC(=O)[C@@H](Cc2ccc3nc(-c4ccc(N(C)C)cc4)oc3c2)NC1=O
64 µg/mL

Data request, read-out MIC, for Cc1ccc(Oc2ccc(-c3nc4ccc(C[C@H]5NC(=O)[C@H]([C@@H](C)c6ccccc6)NC(=O)CNC(=O)[C@H](CO)NC(=O)[C@@H]([C@@H](O)[C@@H]6CN=C(N)N6[C@H]6O[C@H](CO)[C@@H](O)[C@H](O)[C@@H]6O)NC(=O)[C@H]([C@H](O)[C@@H]6CN=C(N)N6)NC5=O)cc4o3)cc2)cc1
8 µg/mL

Please give the measured MIC for this compound: C[C@@H](c1ccccc1)[C@@H]1NC(=O)CNC(=O)[C@H](CO)NC(=O)[C@@H]([C@@H](O)[C@@H]2CN=C(N)N2[C@H]2O[C@H](CO)[C@@H](O)[C@H](O)[C@@H]2O)NC(=O)[C@H]([C@H](O)[C@@H]2CN=C(N)N2)NC(=O)[C@@H](Cc2ccc3nc(-c4cccc(F)c4)oc3c2)NC1=O
64 µg/mL

Please look up its MIC: CCN1CCN(C(=O)N[C@@H](C(=O)N[C@@H]2C(=O)N3[C@@H]2SC(C)(C)[C@@H]3C(=O)O)c2ccccc2)C(=O)C1=O
2 µg/mL

* * *

system: Streptococcus; test: In vitro minimum inhibitory concentration against Streptococcus Species (5 strains, including PRSP); assay type: functional
Task for the reader: assign each of the following molecules its reported MIC.
Only the number, expressed in µg/mL, is required.

Report MIC for C[C@@H](c1ccccc1)[C@@H]1NC(=O)CNC(=O)[C@H](CO)NC(=O)[C@@H]([C@@H](O)[C@@H]2CN=C(N)N2[C@H]2O[C@H](CO)[C@@H](O)[C@H](O)[C@@H]2O)NC(=O)[C@H]([C@H](O)[C@@H]2CN=C(N)N2)NC(=O)[C@@H](Cc2ccc3nc(-c4ccc(N(C)C)cc4)oc3c2)NC1=O please.
16

Entry under review: C[C@@H](c1ccccc1)[C@@H]1NC(=O)CNC(=O)[C@H](CO)NC(=O)[C@@H]([C@@H](O)[C@@H]2CN=C(N)N2[C@H]2O[C@H](CO)[C@@H](O)[C@H](O)[C@@H]2O)NC(=O)[C@H]([C@H](O)[C@@H]2CN=C(N)N2)NC(=O)[C@@H](Cc2ccc3nc(-c4ccc(C(=O)O)cc4)oc3c2)NC1=O . Reported MIC?
128

Fill blank: measured MIC of the molecule C[C@@H](c1ccccc1)[C@@H]1NC(=O)CNC(=O)[C@H](CO)NC(=O)[C@@H]([C@@H](O)[C@@H]2CN=C(N)N2)NC(=O)[C@H]([C@H](O)[C@@H]2CN=C(N)N2)NC(=O)[C@@H](Cc2ccc3nc(-c4ccccc4)oc3c2)NC1=O is ____.
32

* * *

tested on: Streptococcus; assay: In vitro minimum inhibitory concentration against Streptococcus Species (5 strains, including PRSP); type: functional
Exercise: state measured MIC for each of the compounds provided.
Reply numerically in µg/mL, unit not repeated.

Name the recorded MIC for COc1cc(-c2nc3ccc(C[C@H]4NC(=O)[C@H]([C@@H](C)c5ccccc5)NC(=O)CNC(=O)[C@H](CO)NC(=O)[C@@H]([C@@H](O)[C@@H]5CN=C(N)N5[C@H]5O[C@H](CO)[C@@H](O)[C@H](O)[C@@H]5O)NC(=O)[C@H]([C@H](O)[C@@H]5CN=C(N)N5)NC4=O)cc3o2)cc(OC)c1OC .
8

Would you kindly share the measured MIC for C[C@@H](c1ccccc1)[C@@H]1NC(=O)CNC(=O)[C@H](CO)NC(=O)[C@@H]([C@@H](O)[C@@H]2CN=C(N)N2[C@H]2O[C@H](CO)[C@@H](O)[C@H](O)[C@@H]2O)NC(=O)[C@H]([C@H](O)[C@@H]2CN=C(N)N2)NC(=O)[C@@H](Cc2ccc3nc(-c4ccc5c(c4)-c4ccccc4C5)oc3c2)NC1=O ?
4

Quick check: MIC of C[C@@H](c1ccccc1)[C@@H]1NC(=O)CNC(=O)[C@H](CO)NC(=O)[C@@H]([C@@H](O)[C@@H]2CN=C(N)N2[C@H]2O[C@H](CO)[C@@H](O)[C@H](O)[C@@H]2O)NC(=O)[C@H]([C@H](O)[C@@H]2CN=C(N)N2)NC(=O)[C@@H](Cc2ccc3nc(C=C(c4ccccc4)c4ccccc4)oc3c2)NC1=O ?
4

* * *

test system: Staphylococcus aureus; assay: In vitro minimum inhibitory concentration against Methicillin-resistant Staphylococcus aureus (GC 4542); format: functional
property.name: MIC
Please give the number followed by its unit.

Data request, read-out MIC, for Cc1ccc(Oc2ccc(-c3nc4ccc(C[C@H]5NC(=O)[C@H]([C@@H](C)c6ccccc6)NC(=O)CNC(=O)[C@H](CO)NC(=O)[C@@H]([C@@H](O)[C@@H]6CN=C(N)N6[C@H]6O[C@H](CO)[C@@H](O)[C@H](O)[C@@H]6O)NC(=O)[C@H]([C@H](O)[C@@H]6CN=C(N)N6)NC5=O)cc4o3)cc2)cc1
8 µg/mL

Requested read-out: MIC. Entry: C[C@@H](c1ccccc1)[C@@H]1NC(=O)CNC(=O)[C@H](CO)NC(=O)[C@@H]([C@@H](O)[C@@H]2CN=C(N)N2[C@H]2O[C@H](CO)[C@@H](O)[C@H](O)[C@@H]2O)NC(=O)[C@H]([C@H](O)[C@@H]2CN=C(N)N2)NC(=O)[C@@H](Cc2ccc3nc(-c4cccc(F)c4)oc3c2)NC1=O
8 µg/mL

Fill in: MIC of C[C@@H](c1ccccc1)[C@@H]1NC(=O)CNC(=O)[C@H](CO)NC(=O)[C@@H]([C@@H](O)[C@@H]2CN=C(N)N2[C@H]2O[C@H](CO)[C@@H](O)[C@H](O)[C@@H]2O)NC(=O)[C@H]([C@H](O)[C@@H]2CN=C(N)N2)NC(=O)[C@@H](Cc2ccc3nc(SCC(=O)c4ccc(Cl)cc4)oc3c2)NC1=O is ___
4 µg/mL

Return reported MIC; argument: CCN1CCN(C(=O)N[C@@H](C(=O)N[C@@H]2C(=O)N3[C@@H]2SC(C)(C)[C@@H]3C(=O)O)c2ccccc2)C(=O)C1=O
64 µg/mL

Given the molecule C[C@@H](c1ccccc1)[C@@H]1NC(=O)CNC(=O)[C@H](CO)NC(=O)[C@@H]([C@@H](O)[C@@H]2CN=C(N)N2[C@H]2O[C@H](CO)[C@@H](O)[C@H](O)[C@@H]2O)NC(=O)[C@H]([C@H](O)[C@@H]2CN=C(N)N2)NC(=O)[C@@H](Cc2ccc3nc(-c4ccc(N(C)C)cc4)oc3c2)NC1=O , what is its reported MIC?
8 µg/mL
